Hey, just so you know, these numbers are from paper PMC5540273.

Let's look at some molecules and their measured %Inh.
- System: RPS6KA5(Kin.Dom.2-C-terminal)
- details: concentration: 1 μM, replicates: in singlicate; n = 1
Numbers only here, please. The scale is %.

molecule	%Inh (%)
COc1cccc(-c2nc(-c3ccccc3)[nH]c2-c2ccncc2)c1 [SB-610250]	41
COc1cccc(C2=C(Nc3cccc(O)c3)C(=O)NC2=O)c1 [SB-390771]	2
Cc1ccccc1CC(=O)N1CCc2cc(-c3cn(C)c4ncnc(N)c34)ccc21 [GSK2603346]	0
COc1ccc(NC(=O)c2ccoc2)cc1-c1ccc(C(=O)NCC2CC2)cc1 [GW810437]	8
CN(C)CCNS(=O)(=O)c1ccc(-c2ccnc3[nH]ccc23)cc1 [GSK977620]	68

Consider the record given below.
Query: Form entry - test system: RPS6KA5(Kin.Dom.2-C-terminal); read-out: %Inh; molecule: Cl.O=C(Nc1ccc(Oc2ccc3[nH]c(NC(=O)c4ccco4)nc3c2)cc1)Nc1cc(C(F)(F)F)ccc1F [GW683134];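 note: KINOMEscan kinase panel screen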
Response: 6
